Molecular target: T1, human TL1A extracellular domain with N-terminal HIS and FLAG tag (human, UniProt O95150 72-251)
T1 construct: whole entry named. ~70 kDa fraction purified by gel filtration
T1 sequence: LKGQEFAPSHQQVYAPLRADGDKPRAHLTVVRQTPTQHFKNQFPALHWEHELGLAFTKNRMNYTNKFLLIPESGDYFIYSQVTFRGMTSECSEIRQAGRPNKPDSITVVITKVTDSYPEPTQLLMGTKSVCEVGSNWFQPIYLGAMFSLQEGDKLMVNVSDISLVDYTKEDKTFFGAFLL
Test: SPR run 2; supernatant on Protein A; TL1A 10 ug/mL; timepoint 220
Each record here notes measured TL1A Binding Level (Late).
Give the value, in units of RU, as a plain number.

// worked examples, TL1A Binding Level (Late) included
>>> value("320-198 (antibody, human IgG1, name in Kabat numbering, V domains shown, human IgG1, lambda) VH: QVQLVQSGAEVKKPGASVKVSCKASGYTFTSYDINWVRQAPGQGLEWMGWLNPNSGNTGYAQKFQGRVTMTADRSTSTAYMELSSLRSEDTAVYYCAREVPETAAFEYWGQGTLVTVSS VL: QSVLTQPPSVSGAPGQRVTISCLSSSSDIGAGLGVHWYQQLPGTAPKLLIEGYYNRPSGVPDRFSGSKSGTSASLTITGLLPEDEGDYYCQSYDGTLSALFGGGTKLTVLG")
241
>>> value("320-217 (antibody, human IgG1, name in Kabat numbering, V domains shown, human IgG1, lambda) VH: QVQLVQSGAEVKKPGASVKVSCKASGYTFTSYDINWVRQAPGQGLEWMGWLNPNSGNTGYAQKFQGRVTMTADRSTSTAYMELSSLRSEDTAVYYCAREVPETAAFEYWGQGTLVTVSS VL: QSVLTQPPSVSGAPGQRVTISCTSSASDIGAGLGVHWYQQLPGTAPKLLIEGYYNRPSGVPDRFSGSKSGTSASLTITGLLPEDEGDYYCQSYDGTLSALFGGGTKLTVLG")
235

Then there is this binder:
Ask: Reported TL1A Binding Level (Late) for 320-194 (antibody, human IgG1, name in Kabat numbering, V domains shown, human IgG1, lambda) VH: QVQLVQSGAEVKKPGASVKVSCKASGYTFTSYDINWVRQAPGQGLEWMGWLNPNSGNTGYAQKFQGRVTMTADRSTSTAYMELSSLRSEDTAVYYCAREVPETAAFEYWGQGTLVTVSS VL: QSVLTQPPSVSGAPGQRVTISCQSSSSDIGAGLGVHWYQQLPGTAPKLLIEGYYNRPSGVPDRFSGSKSGTSASLTITGLLPEDEGDYYCQSYDGTLSALFGGGTKLTVLG : what is it?
Result: 226
